- Tested on: DLD1
- Protocol Notes: cell viability (CellTiter-Glo) relative to plate median (fraction of plate median); higher = more viable cells
- Recorded Conditions: 10 µM; treatment time 24 h; reporter: TCF4/Wnt
Structures can show the parent of a compound that is named as a salt.
Listed here are molecules together with their documented cell viability.

Molecule	cell viability
CCc1cc2c(cc1N1CCC(N3CCOCC3)CC1)C(C)(C)c1[nH]c3cc(C#N)ccc3c1C2=O	0.995
NC1(Cc2ccc(Cl)cc2)CCN(c2ncnc3[nH]ccc23)CC1	1.1
Cc1cc(Nc2cc(N3CCN(C)CC3)nc(/C=C/c3ccccc3)n2)n[nH]1	0.942
C#Cc1cccc(Nc2ncnc3cc(OCCOC)c(OCCOC)cc23)c1 [Erlotinib HCl]	0.934
COc1cc2ncnc(Nc3cccc(Br)c3)c2cc1OC	1.07
Nc1ncnc2c1c(-c1cccc(OCc3ccccc3)c1)cn2C1CC(CN2CCCC2)C1 (configuration not stated)	0.809
CN(C)C1CCN(C(=O)c2ccc(NC(=O)Nc3ccc(-c4nc(N5CCOCC5)nc(N5CCOCC5)n4)cc3)cc2)CC1	1.05
COc1cc(Nc2ncc(F)c(Nc3ccc4c(n3)N(COP(=O)(O)O)C(=O)C(C)(C)O4)n2)cc(OC)c1OC [R788 (Fostamatinib)]	0.959
Cc1ccc(-n2nc(C(C)(C)C)cc2NC(=O)Nc2ccc(OCCN3CCOCC3)c3ccccc23)cc1	1.12
CC[C@@H]1C(=O)N(C)c2cnc(Nc3ccc(C(=O)NC4CCN(C)CC4)cc3OC)nc2N1C1CCCC1	0.863
CNC(=O)c1cccc(-c2ccc3c(N4CCOC[C@@H]4C)nc(N4CCOC[C@@H]4C)nc3n2)c1	0.874
CN1CC[C@H](c2c(O)cc(O)c3c(=O)cc(-c4ccccc4Cl)oc23)[C@H](O)C1 [Flavopiridol hydrochloride]	1.24
Cc1[nH]c(/C=C2\C(=O)Nc3ccc(S(=O)(=O)Cc4c(Cl)cccc4Cl)cc32)c(C)c1C(=O)N1CCC[C@@H]1CN1CCCC1	0.648
CCS(=O)(=O)c1cccc(-c2cc(C(=O)NC3CCN(C)CC3)c(C)c3[nH]c4ncc(C)cc4c23)c1	1.1
CCOc1ccn(-c2ccc(F)cc2)c(=O)c1C(=O)Nc1ccc(Oc2ccnc(N)c2Cl)c(F)c1	0.971
COc1ccc(-c2ccc3c(N4CCOC[C@@H]4C)nc(N4CCOC[C@@H]4C)nc3n2)cc1CO	0.921
C[C@@H](N)[C@H]1CC[C@H](C(=O)Nc2ccncc2)CC1	1.03

====

- Test system: SW480
- Protocol Notes: TCF/Wnt firefly luciferase reporter signal relative to plate median (fraction of plate median); higher = higher Wnt reporter signal
- Recorded Conditions: 10 µM; treatment time 24 h; reporter: 7TFP
Structures can show the parent of a compound that is named as a salt.
Readout Label: TCF/Wnt firefly luciferase reporter signal

Molecule	Target Of Assay	Reported Result
Clc1ccc(Nc2nnc(Cc3ccncc3)c3ccccc23)cc1 [Vatalanib dihydrochloride (PTK787)]	SW480	0.957
COc1cc2ncnc(Nc3cccc(Cl)c3)c2cc1OC [AG-1478 (Tyrphostin AG-1478)]	SW480	0.962
COc1cc(N2CCC(N3CCN(C)CC3)CC2)ccc1Nc1ncc(Cl)c(Nc2ccccc2S(=O)(=O)C(C)C)n1	SW480	0.767
CC(C)(C)Cn1c(N)nc2ccc(-c3[nH]c(C(C)(C)C)nc3-c3ccc(F)cc3)nc21	SW480	1.36
COc1ccc(COc2cc3oc(=O)c4cc(C(C)O)ccc4c3cc2OC)cc1 (centres undefined) [Palomid 529]	SW480	1.07
COc1cc(Nc2ncc3c(n2)-c2ccc(Cl)cc2C(c2c(F)cccc2OC)=NC3)ccc1C(=O)O [MLN8237 (Alisertib)]	SW480	0.974
Cc1cc(CN2CCN(c3c(Br)cnc4nc(-c5ccc(N6CCN(C)CC6)cc5)[nH]c34)CC2)no1	SW480	1.34
Cc1c(CN2CCN(C(=O)[C@H](C)O)CC2)sc2c(N3CCOCC3)nc(-c3cnc(N)nc3)nc12	SW480	0.764
COc1ccc(-c2cc3c(C)nc(N)nc3n([C@H]3CC[C@H](OCCO)CC3)c2=O)cn1	SW480	0.725
FC(F)(F)c1ccc(Nc2nc3ccc(Oc4ccnc(-c5ncc(C(F)(F)F)[nH]5)c4)cc3[nH]2)cc1 [Raf265 derivative]	SW480	0.81
O=C(Cc1ccc(-c2ccc(OCCN3CCOCC3)cc2)cn1)NCc1ccccc1	SW480	0.791
COc1cc(CCc2cc(NC(=O)c3ccc(N4CC(C)NC(C)C4)cc3)n[nH]2)cc(OC)c1 (centres undefined)	SW480	0.93
C#Cc1cccc(Nc2ncnc3cc(OCCOC)c(OCCO)cc23)c1 [OSI-420 (Desmethyl Erlotinib)]	SW480	0.668
CC(C)(C)c1cnc(CSc2cnc(NC(=O)C3CCNCC3)s2)o1	SW480	0.84
Cc1ccc(NC(=O)c2ccc(CN3CCN(C)CC3)cc2)cc1Nc1nccc(-c2cccnc2)n1 [Imatinib (Gleevec)]	SW480	1.39
Cc1cccc(-c2[nH]c(C(C)(C)C)nc2-c2ccc3nccnc3c2)n1	SW480	0.854
Oc1ccc(-c2nc(-c3ccc(F)cc3)c(-c3ccncc3)[nH]2)cc1	SW480	0.792
N=C(N)NC(=N)NCCc1ccccc1 [Phenformin hydrochloride]	SW480	1.17
CCc1cccc(CC)c1NC(=O)N1Cc2[nH]nc(NC(=O)c3ccc(N4CCN(C)CC4)cc3)c2C1	SW480	0.794
CN1CC[C@H](c2c(O)cc(O)c3c(=O)cc(-c4ccccc4Cl)oc23)[C@H](O)C1 [Flavopiridol hydrochloride]	SW480	0.869
N#CC(=C(/N)Sc1ccccc1N)/C(C#N)=C(\N)Sc1ccccc1N	SW480	1.59
Cc1ccc(-n2nc(C(C)(C)C)cc2NC(=O)Nc2ccc(OCCN3CCOCC3)c3ccccc23)cc1 [BIRB 796 (Doramapimod)]	SW480	1.07
CC[C@@H]1C(=O)N(C)c2cnc(Nc3ccc(C(=O)N[C@H]4CC[C@H](N5CCN(CC6CC6)CC5)CC4)cc3OC)nc2N1C(C)C [BI6727 (Volasertib)]	SW480	1.39
CCCS(=O)(=O)Nc1ccc(F)c(C(=O)c2c[nH]c3ncc(-c4ccc(Cl)cc4)cc23)c1F [Vemurafenib (PLX4032)]	SW480	0.866
Cc1ccc([N+](=O)[O-])cc1S(=O)(=O)N(C)/N=C/c1cnc2ccc(Br)cn12	SW480	0.53
CO[C@@H](C(=O)N1Cc2[nH]nc(NC(=O)c3ccc(N4CCN(C)CC4)cc3)c2C1)c1ccccc1	SW480	0.656
N#C/C(=C\c1ccc(O)c(O)c1)C(=O)NCc1ccccc1	SW480	0.834
C=CC(=O)Nc1cccc(Sc2nc(Nc3ccc(N4CCN(C)CC4)cc3)ncc2Cl)c1	SW480	1.32
O=C(NOC[C@H](O)CO)c1ccc(F)c(F)c1Nc1ccc(I)cc1F	SW480	1.75
COc1cc2ncnc(Nc3ccc(F)c(Cl)c3)c2cc1OCCCN1CCOCC1 [Gefitinib (Iressa)]	SW480	1.02
CN(C)Cc1cccc(N/C(=C2\C(=O)Nc3cc(C(N)=O)ccc32)c2ccccc2)c1	SW480	1.14
Cc1cn(-c2cc(NC(=O)c3ccc(C)c(Nc4nccc(-c5cccnc5)n4)c3)cc(C(F)(F)F)c2)cn1 [Nilotinib (AMN-107)]	SW480	1.04
Oc1c2ccccc2c2c3c(cccc13)N=N2	SW480	1.06
O=c1cc(N2CCOCC2)oc2c(-c3cccc4c3sc3ccccc34)cccc12	SW480	1.1
